# target-system: HLA-A*6802 (Homo sapiens, UniProt P04439, A269V/D140Y/D185E/E176V/E277Q/E87N/F33Y/G231S/I121R/I166T/I218V/L180W/L300P/L318F/N151K/P208A/P217A/Q86R/R138H/R169H/S129P/T345S/V36M)
# procedure-summary: HLA class I binding assay, purified HLA, inhibition of 125I-labelled probe peptide
# conditions-used: A2 supermotif cross-reactive binding data; read-out: A*6802 nM
// reported pIC50 for each item listed
Interpret pIC50 as the negative base-10 log of the concentration measured in mol/L.

1. CC[C@H](C)[C@H](NC(=O)[C@H](Cc1ccccc1)NC(=O)[C@H](C)NC(=O)[C@H](CCCNC(=N)N)NC(=O)[C@H](CCC(=O)O)NC(=O)[C@H](CC(C)C)NC(=O)[C@H](Cc1ccccc1)NC(=O)[C@H](CCSC)NC(=O)[C@H](CC(C)C)NC(=O)[C@@H](N)CCC(N)=O)C(=O)O [Peptide 1126.16] :: 7.52

Now examine the next entry.
Item: CC(C)C[C@H](NC(=O)[C@@H](NC(=O)[C@H](CO)NC(=O)[C@H](CCCNC(=N)N)NC(=O)[C@H](CC(=O)O)NC(=O)[C@H](CC(C)C)NC(=O)[C@H](Cc1c[nH]c2ccccc12)NC(=O)[C@H](Cc1ccccc1)NC(=O)[C@H](Cc1ccccc1)NC(=O)[C@H](CC(C)C)NC(=O)[C@@H](N)CC(C)C)C(C)C)C(=O)O [Peptide 63.0139] | pIC50: 5.35
